- Experimental Target: HER-2 (Homo sapiens)
- Sequence (P04626 23-1255): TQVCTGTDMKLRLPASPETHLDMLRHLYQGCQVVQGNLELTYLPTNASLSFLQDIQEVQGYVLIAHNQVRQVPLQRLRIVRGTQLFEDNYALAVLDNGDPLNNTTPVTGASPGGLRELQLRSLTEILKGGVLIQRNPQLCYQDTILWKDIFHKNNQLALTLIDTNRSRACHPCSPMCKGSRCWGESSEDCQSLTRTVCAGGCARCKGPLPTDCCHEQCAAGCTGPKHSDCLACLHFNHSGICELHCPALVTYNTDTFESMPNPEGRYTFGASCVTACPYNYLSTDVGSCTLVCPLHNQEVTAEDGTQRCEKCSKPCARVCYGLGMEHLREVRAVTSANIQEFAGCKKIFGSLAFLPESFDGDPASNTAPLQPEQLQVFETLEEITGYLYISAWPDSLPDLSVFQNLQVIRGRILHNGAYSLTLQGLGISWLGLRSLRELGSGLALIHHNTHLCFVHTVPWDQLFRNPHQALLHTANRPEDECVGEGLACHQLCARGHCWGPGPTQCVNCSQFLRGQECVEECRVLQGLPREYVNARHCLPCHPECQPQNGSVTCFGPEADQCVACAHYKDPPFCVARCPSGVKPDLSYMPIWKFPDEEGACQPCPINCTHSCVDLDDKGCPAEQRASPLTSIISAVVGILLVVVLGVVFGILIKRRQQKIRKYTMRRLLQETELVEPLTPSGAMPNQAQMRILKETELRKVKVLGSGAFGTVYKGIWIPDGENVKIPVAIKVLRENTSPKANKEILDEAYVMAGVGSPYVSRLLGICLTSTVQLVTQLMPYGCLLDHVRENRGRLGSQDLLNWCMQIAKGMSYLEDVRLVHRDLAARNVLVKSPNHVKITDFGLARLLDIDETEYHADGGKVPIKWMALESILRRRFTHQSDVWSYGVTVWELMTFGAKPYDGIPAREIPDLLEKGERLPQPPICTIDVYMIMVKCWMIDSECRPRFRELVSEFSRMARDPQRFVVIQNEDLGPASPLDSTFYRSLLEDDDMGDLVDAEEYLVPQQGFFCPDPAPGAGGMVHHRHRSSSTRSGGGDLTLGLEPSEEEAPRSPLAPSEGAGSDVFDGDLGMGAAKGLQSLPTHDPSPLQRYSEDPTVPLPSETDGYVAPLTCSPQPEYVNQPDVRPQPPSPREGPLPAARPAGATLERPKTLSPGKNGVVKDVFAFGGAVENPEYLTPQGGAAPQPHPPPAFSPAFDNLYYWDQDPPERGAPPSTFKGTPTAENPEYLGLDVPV
- Protocol Text: HER-2 kinase inhibition (HTRF assay)
- Assay type: biochemical
- Recorded Conditions: ATP 1.65 μM, 30 min, room temperature, read-out: IC50 (Mean ± SEM) (µM) HER-2 (converted)
Under this convention, satisfied denotes IC50 strictly below 3 µM and not satisfied denotes IC50 at or above 3 µM.

For orientation, consider the following solved cases.
Cc1ccc(NC(=O)Cn2cc(CO[C@@H]3OC[C@@H](O)[C@H](O)[C@H]3O)nn2)cc1 [Compound 15]
satisfied
CCn1cc(C=Nc2nnc(SCCn3cc(CO[C@@H]4OC[C@@H](O)[C@H](O)[C@H]4O)nn3)s2)c2ccccc21 [Compound 8]
satisfied
CC(=O)O[C@@H]1[C@@H](OC(C)=O)[C@H](OCc2cn(CC(=O)Nc3ccc(C)cc3)nn2)OC[C@H]1OC(C)=O [Compound 11]
not satisfied
CC(=O)OC[C@H]1O[C@@H](OCc2cn(CC(=O)Nc3ccc(C)cc3)nn2)[C@H](OC(C)=O)[C@@H](OC(C)=O)[C@H]1OC(C)=O [Compound 12]
not satisfied

Req: Determine whether this compound shows IC50 lower than 3 µM (ties excluded): CCn1cc(C=Nc2nnc(SCCn3cc(CO[C@@H]4O[C@H](CO)[C@@H](O)[C@H](O)[C@H]4O)nn3)s2)c2ccccc21 [Compound 7]
Resp: satisfied

* * *

Provide the recorded IC50 for the entries that follow.
- Experimental Target: EGFR^T790M (Homo sapiens, UniProt P00533, T790M)
- Sequence (P00533 25-1210 T790M): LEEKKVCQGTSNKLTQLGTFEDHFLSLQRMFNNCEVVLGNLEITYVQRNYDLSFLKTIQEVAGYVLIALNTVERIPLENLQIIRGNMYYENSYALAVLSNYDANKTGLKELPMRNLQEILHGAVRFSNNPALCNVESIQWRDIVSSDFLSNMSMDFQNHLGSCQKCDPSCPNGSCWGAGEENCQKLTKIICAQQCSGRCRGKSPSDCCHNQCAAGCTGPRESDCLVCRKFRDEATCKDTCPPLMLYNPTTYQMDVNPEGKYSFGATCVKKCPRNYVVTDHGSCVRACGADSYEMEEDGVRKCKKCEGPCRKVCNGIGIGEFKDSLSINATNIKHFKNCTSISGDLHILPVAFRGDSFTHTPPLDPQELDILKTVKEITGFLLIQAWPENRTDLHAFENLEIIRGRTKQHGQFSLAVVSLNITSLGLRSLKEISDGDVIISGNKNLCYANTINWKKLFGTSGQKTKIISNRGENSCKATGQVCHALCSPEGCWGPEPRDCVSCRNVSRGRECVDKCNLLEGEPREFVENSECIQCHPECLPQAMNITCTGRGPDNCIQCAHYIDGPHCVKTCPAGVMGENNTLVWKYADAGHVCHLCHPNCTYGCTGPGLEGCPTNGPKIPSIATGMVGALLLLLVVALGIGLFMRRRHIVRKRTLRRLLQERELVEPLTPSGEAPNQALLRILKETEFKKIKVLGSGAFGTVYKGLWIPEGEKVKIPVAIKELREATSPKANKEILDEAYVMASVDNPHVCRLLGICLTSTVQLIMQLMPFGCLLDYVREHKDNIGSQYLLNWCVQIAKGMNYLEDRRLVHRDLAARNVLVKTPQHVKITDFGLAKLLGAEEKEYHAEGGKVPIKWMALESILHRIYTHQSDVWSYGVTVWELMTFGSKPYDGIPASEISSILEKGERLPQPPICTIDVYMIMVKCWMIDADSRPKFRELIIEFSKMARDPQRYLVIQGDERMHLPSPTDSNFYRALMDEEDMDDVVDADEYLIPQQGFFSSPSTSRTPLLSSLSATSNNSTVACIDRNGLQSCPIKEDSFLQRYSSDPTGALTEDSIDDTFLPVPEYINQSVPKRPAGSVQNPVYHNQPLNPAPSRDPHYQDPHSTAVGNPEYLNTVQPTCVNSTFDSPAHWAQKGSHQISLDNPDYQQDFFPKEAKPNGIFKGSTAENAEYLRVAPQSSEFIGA
- Protocol Text: EGFR^T790M kinase inhibition (HTRF assay)
- Assay type: biochemical
- Recorded Conditions: ATP 1.65 μM, 30 min, room temperature, read-out: IC50 (Mean ± SEM) (µM) EGFR^T790M
Answers are plain numbers, in µM.

CC(=O)O[C@@H]1[C@@H](OC(C)=O)[C@H](OCc2cn(CC(=O)Nc3ccc(C)cc3)nn2)OC[C@H]1OC(C)=O
11.8
CCn1cc(C=Nc2nnc(SCCn3cc(CO[C@@H]4OC[C@@H](O)[C@H](O)[C@H]4O)nn3)s2)c2ccccc21
1.95
CCn1cc(C=Nc2nnc(SCCn3cc(CO[C@@H]4O[C@H](CO)[C@@H](O)[C@H](O)[C@H]4O)nn3)s2)c2ccccc21
1.12
CC(=O)OC[C@H]1O[C@@H](OCc2cn(CC(=O)Nc3ccc(C)cc3)nn2)[C@H](OC(C)=O)[C@@H](OC(C)=O)[C@H]1OC(C)=O
15.2

Req: Look up and state reported IC50 for Cc1ccc(NC(=O)Cn2cc(CO[C@@H]3OC[C@@H](O)[C@H](O)[C@H]3O)nn2)cc1
Resp: 1.5

* * *

Provide the recorded IC50 for the entries that follow.
- Experimental Target: EGFR^WT (Homo sapiens, UniProt P00533)
- Sequence (P00533 25-1210): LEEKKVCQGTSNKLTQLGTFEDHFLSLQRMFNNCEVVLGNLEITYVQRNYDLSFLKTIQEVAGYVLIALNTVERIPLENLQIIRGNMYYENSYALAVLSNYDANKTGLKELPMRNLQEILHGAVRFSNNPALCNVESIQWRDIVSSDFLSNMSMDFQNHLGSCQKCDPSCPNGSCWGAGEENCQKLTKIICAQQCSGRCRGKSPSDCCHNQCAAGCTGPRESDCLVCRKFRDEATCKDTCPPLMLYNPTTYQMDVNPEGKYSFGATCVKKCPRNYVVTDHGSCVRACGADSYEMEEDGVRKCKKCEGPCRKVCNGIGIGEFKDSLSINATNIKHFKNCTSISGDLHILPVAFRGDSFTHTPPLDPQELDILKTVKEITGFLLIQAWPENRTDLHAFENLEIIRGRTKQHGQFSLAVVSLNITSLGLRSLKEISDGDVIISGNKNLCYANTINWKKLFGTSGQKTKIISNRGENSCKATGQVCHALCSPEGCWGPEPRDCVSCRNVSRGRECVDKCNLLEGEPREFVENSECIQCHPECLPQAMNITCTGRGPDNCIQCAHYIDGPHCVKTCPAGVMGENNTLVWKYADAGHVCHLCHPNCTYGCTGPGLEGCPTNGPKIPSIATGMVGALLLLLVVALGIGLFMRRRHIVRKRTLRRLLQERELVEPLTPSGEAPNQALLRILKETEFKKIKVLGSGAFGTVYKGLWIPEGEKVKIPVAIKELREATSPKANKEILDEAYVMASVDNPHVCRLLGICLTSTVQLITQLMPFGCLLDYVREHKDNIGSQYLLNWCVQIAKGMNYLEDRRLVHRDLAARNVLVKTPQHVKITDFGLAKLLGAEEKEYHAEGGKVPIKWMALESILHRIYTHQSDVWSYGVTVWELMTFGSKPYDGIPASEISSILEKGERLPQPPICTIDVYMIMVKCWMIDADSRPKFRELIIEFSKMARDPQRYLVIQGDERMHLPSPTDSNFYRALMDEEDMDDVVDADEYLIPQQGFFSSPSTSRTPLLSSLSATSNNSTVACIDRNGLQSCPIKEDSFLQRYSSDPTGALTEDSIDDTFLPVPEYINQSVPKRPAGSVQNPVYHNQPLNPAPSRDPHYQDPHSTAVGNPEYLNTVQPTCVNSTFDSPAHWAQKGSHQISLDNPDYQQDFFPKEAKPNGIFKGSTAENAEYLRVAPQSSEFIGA
- Protocol Text: EGFR^WT kinase inhibition (HTRF assay)
- Assay type: biochemical
- Recorded Conditions: ATP 1.65 μM, 30 min, room temperature, read-out: IC50 (Mean ± SEM) (µM) EGFR^WT
- Protocol: A homogeneous time-resolved fluorescence (HTRF) assay was applied in this test (Sigma). […] The assay was conducted for 30 min at room temperature. The reaction was stopped by the addition of detection reagents that contained EDTA. […] Three independent experiments were performed for each concentration.

Sample answers from the record:
Cc1ccc(NC(=O)Cn2cc(CO[C@@H]3OC[C@@H](O)[C@H](O)[C@H]3O)nn2)cc1 [Compound 15]
0.21 µM
CC(=O)O[C@@H]1[C@@H](OC(C)=O)[C@H](OCc2cn(CC(=O)Nc3ccc(C)cc3)nn2)OC[C@H]1OC(C)=O [Compound 11]
6.45 µM
CC(=O)OC[C@H]1O[C@@H](OCc2cn(CC(=O)Nc3ccc(C)cc3)nn2)[C@H](OC(C)=O)[C@@H](OC(C)=O)[C@H]1OC(C)=O [Compound 12]
12.7 µM
CCn1cc(C=Nc2nnc(SCCn3cc(CO[C@@H]4O[C@H](CO)[C@@H](O)[C@H](O)[C@H]4O)nn3)s2)c2ccccc21 [Compound 7]
0.3 µM

Consider now this further molecule.
Req: Look up and state reported IC50 for CCn1cc(C=Nc2nnc(SCCn3cc(CO[C@@H]4OC[C@@H](O)[C@H](O)[C@H]4O)nn3)s2)c2ccccc21 [Compound 8]
Resp: 0.38 µM

Where do these numbers come from? They come from paper PMC9611297.
